Molecular target: human cardiac troponin C, wild type (human, UniProt P63316 1-161)
Experiment: NMR titration; 1H-15N HSQC spectra at 37 °C of WT or C84Y cTnC in the Ca2+-bound (primed) state, without peptide and with increasing concentrations of peptide (15, 40, 70, 120, 150 and 200 μM); normalized 1H chemical shifts against peptide concentration
Settings: both partners purified
test_readout: Kd (µM)
Report the figure in µM without appending any unit label.

// Kd lookup, key: Ac-LTQKIFDLRGKFKRPTLRRV-NH2 (source: synthetic peptide (Genscript, purity higher than 95%)) [inhibitory cardiac TnI peptide iTnI128-147] 59
